Entry source: patent US9834521B2

- experimentalSystem: ChoKα protein (Homo sapiens)
- Construct: made in house
- Sequence (P35790 75-457): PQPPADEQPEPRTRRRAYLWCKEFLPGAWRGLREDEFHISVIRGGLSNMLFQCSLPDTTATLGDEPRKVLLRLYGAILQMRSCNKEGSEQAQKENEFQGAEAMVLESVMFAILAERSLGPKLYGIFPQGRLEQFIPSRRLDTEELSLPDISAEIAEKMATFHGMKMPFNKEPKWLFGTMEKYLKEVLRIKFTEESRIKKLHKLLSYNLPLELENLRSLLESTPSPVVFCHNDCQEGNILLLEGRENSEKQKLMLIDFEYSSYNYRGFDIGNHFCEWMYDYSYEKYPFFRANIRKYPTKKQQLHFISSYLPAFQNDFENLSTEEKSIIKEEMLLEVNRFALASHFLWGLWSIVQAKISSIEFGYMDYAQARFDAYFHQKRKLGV
- testMethodNotes: Binding affinity by surface plasmon resonance (SensiQ Pioneer, FastStep)
- conditionParameters: SPR, 1:1 binding model, upper concentration 500 nM; read-out: Kd
pKd: −log10 of the molar value.
observedProperty: pKd

### Prompt Tell me its pKd given CN1CCCN(Cc2ccc(CN3CCC(N4CCCC4)CC3)cc2)CC1 [Example 148] as the entry.
### Response > 4.22

### Prompt Tell me its pKd given CN1CCCN(Cc2ccc(-c3ccc(C(=O)N4CCCN(C)CC4)cc3C#N)c(C#N)c2)CC1 [Example 63] as the entry.
### Response > 6.70

### Prompt Tell me its pKd given CN1CCCN(Cc2ccc(-c3ccc(CN4CCCN(C)CC4)cc3C#N)c(C#N)c2)CC1 [Example 56] as the entry.
### Response > 7.00

### Prompt Tell me its pKd given Cc1cc(CN2CCCN(C)CC2)ccc1-c1ccc(CO)cc1 [Example 51] as the entry.
### Response > 4.22
